ASSAY EXPLANATION: NCI Yeast Anticancer Drug Screen. Data for the rad50 strain (AID 155);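 also: 0% = growth of vehicle-only cultures of the same strain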
CONDITION INFO: S. cerevisiae rad50 strain growth inhibition; at 5.0 µM (retest, dose inferred, filed as 0.5); active compounds read high
This is part of a sample that, as a whole, favours compounds with a hit. Of some 79,000 tested, about 15% had one in any assay.
Recorded growth inhibition by entry

MOLECULE	OUTPUT UNIT	growth inhibition
O=C1c2cc(Br)ccc2NC1(c1c[nH]c2ccccc12)c1c[nH]c2ccccc12	%	98
C[C@]12C[C@H](c3ccccc3)Nc3ccccc3N1C(c1ccccc1)=NO2	%	0
CC(C)(C)/C=N/NS(=O)(=O)c1ccccc1	%	-114
C=C(C)C(CC=C(C)C)Cc1c(O)cc(OC)c2c1OC(c1ccc(O)cc1O)C(O)C2=O (stereo not given)	%	29
C=C1CC2(CCS(=O)(=O)c3ccccc32)OC1=O (stereo not given)	%	2
CCN(C(C)=O)c1ccc2c(c1)Cc1ccccc1-2	%	3
O=C(N/C(=C\c1ccccc1)C(=O)N1CCN(c2ccccc2)CC1)c1ccccc1	%	-9
Cc1ccc(Nc2nc(C)c(C(=O)C/C(=N\NC(N)=S)C(=O)Nc3ccc(Cl)cc3C)s2)cc1	%	-6
O=C(O)/C=C\C(=O)Nc1ccc2c(c1)C(=O)c1cc(F)ccc1-2	%	10
COc1cccc2c1C(=O)c1c(O)c3c(c(O)c1C2=O)C[C@@](O)(C(O)CO)C[C@@H]3OC1CC(N(Cc2ccccc2)Cc2ccccc2)C(O)C(C)O1 (stereo not given in full)	%	45

----------
ASSAY EXPLANATION: NCI Yeast Anticancer Drug Screen. Data for the mlh1 rad18 strain (AID 175)
CONDITION INFO: S. cerevisiae mlh1 rad18 strain growth inhibition; at 50.0 µM (retest, dose inferred, filed as 5.0); active compounds read high
Experimental: Growth inhibition of yeast strains with defined genetic alterations is measured as a screen for potential anti-cancer activity. Selected strains with alterations in DNA damage repair or cell cycle control were exposed to compounds and growth inhibition was measured relative to vehicle treated controls. The strain used in this assay is mlh1 rad18
Compounds without any hit were thinned out: in the full panel of roughly 79,000, 15% have a hit.
MEASURE: growth inhibition (%)

COMPOUND	MEASURE	RECORDED RESULT
CC1(C)NC(=O)C(C)(C)NC1=O	growth inhibition	3
COC1/C=C\OC2(C)Oc3c(C)c(O)c4c(O)c(c5[nH]c(-c6ccccc6)nc5c4c3C2=O)NC(=O)/C(C)=C\C=C\C(C)C(O)C(C)C(O)C(C)C(OC(C)=O)C1C (stereo not drawn)	growth inhibition	94
CC(C)OC(=O)C1C=CCc2c(O)ccc(O)c21 (stereo not drawn)	growth inhibition	35
CCCCNCCCNCCCNC(=O)c1csc(-c2csc(CCNC(=O)C(NC(=O)C(C)C(O)C(C)NC(=O)C(NC(=O)c3nc(C(CC(N)=O)NCC(N)C(N)=O)nc(N)c3C)C(OC3OC(CO)C(O)C(O)C3OC3OC(CO)C(O)C(OC(N)=O)C3O)c3cnc[nH]3)C(C)O)n2)n1 (stereo not drawn)	growth inhibition	99
O=C(NNc1ccccc1)c1cccc([N+](=O)[O-])c1	growth inhibition	98
O=[N+]([O-])C1C2C=CC(C2)[C@H]1c1ccc(Cl)cc1Cl (stereo partly drawn)	growth inhibition	89
O=C1C(Cl)=C(N2C(=O)CCCC2=O)C(=O)c2ccccc21	growth inhibition	99
CN(C)C=Nc1c2ccccc2nc2ccccc12	growth inhibition	84

----------
ASSAY EXPLANATION: NCI Yeast Anticancer Drug Screen. Data for the sgs1 mgt1 strain (AID 161);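 also: 0% = growth of cultures given vehicle only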
CONDITION INFO: S. cerevisiae sgs1 mgt1 strain, at 50.0 µM (retest, dose inferred, filed as 5.0), active compounds read high
Compounds without any hit were thinned out: in the full panel of roughly 79,000, 15% have a hit.
MEASURE: growth inhibition (%)

> print(dat)
                                   compound  recorded.result
1       Oc1c(Cl)cc(Cl)cc1/C=C1\C=Nc2ccccc21                5
2  CC/C(=C1\C=CC(=O)S1)C(CC)c1ccc(OC(C)=O)cc1 (stereo unspecified)               98
3  CC(C)C(CC(C)(C)C)OC(=O)Nc1cccc2ccccc12 (stereo unspecified)               97
4  CC(C)CC(N)C(=O)NNc1ccccc1 (stereo unspecified)               97
5  CCN(CC)CCSCCCNc1cc(C)nc2c1ccc1c2ccc2c(NCCCSCCN(CC)CC)cc(C)nc21               49
6              COC(=O)c1ccc(OCCC(=O)CCl)cc1               55

----------
ASSAY EXPLANATION: NCI Yeast Anticancer Drug Screen. Data for the cln2 rad14 strain (AID 165);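 also: 0% = growth equal to vehicle treated cultures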
CONDITION INFO: S. cerevisiae cln2 rad14 strain, at 5.0 µM (retest, dose inferred, filed as 0.5), active compounds read high
This is part of a sample that, as a whole, favours compounds with a hit. Of some 79,000 tested, about 15% had one in any assay. The source made the active and inactive calls. Rule as the data show it: active = growth inhibition above about 70%; inactive = the rest.
MEASURE: growth inhibition

> print(dat)
                                    compound  recorded.result
 1  CC(=O)O/N=C1/CCC2C3CC=C4CC(OC(C)=O)CCC4(C)C3CCC12C (stereo not given)   -1% (inactive)
 2             O=CNc1ccc(Oc2ccc(NC=O)cc2)cc1   -1% (inactive)
 3   C1=CC2OC2CCCCCCCC1 (mixture of isomers)   -2% (inactive)
 4  CC(=O)O[C@@H]1[C@@H](O)[C@H]2O[C@@H]3C=C(C)CC[C@]3(CO)[C@]1(C)[C@@]21CO1   52% (inactive)
 5  Cc1c[nH]c(C(=O)O)c1-c1ccc2c(-c3ccccc3)nc3ccccc3n12    8% (inactive)
 6  Cc1cc(-c2ccc(N=Nc3cc(S(=O)(=O)O)c4ccccc4c3N)c(C)c2)ccc1N=Nc1cc(S(=O)(=O)O)c2ccccc2c1N   31% (inactive)
 7  C/C(=N\NC(=S)NC12CC3CC(CC(C3)C1)C2)c1ccccn1   -5% (inactive)
 8        CN(C)C(=O)c1cc(Cl)cc(-c2ccccc2)c1O   -5% (inactive)
 9  CC(=O)OCC1OC(n2ncc3c(Sc4c([N+](=O)[O-])ncn4C)ncnc32)C(OC(C)=O)C1OC(C)=O (stereo not given)    2% (inactive)
10  Oc1cc(Cl)cc2c1-c1ccc(Cl)cc1C2O (stereo not given)   28% (inactive)

----------
ASSAY EXPLANATION: NCI Yeast Anticancer Drug Screen. Data for the mlh1 rad18 strain (AID 175)
CONDITION INFO: S. cerevisiae mlh1 rad18 strain growth inhibition; at 5.0 µM (retest, dose inferred, filed as 0.5); active compounds read high
Compounds without any hit were thinned out: in the full panel of roughly 79,000, 15% have a hit.
Recorded growth inhibition by entry
MEASURE: growth inhibition (%)

> print(dat)
                                   compound            measure  output.unit  recorded.result
1  O=c1[nH]c2c([N+](=O)[O-])cc(Cl)cc2nc1/C=C(\O)c1cccc2ccccc12  growth inhibition            %               -7
2  O=C(N/N=C/c1ccccn1)c1ccccc1[O-].O=C(N/N=C/c1ccccn1)c1ccccc1[O-].[Co+2]  growth inhibition            %               18
3  COc1ccc(C(=O)NCCN2CCN3Cc4[nH]c5ccccc5c4CC3C2)cc1 (stereo not given)  growth inhibition            %              -11
4          Clc1nc2cc3nc(Cl)c(Cl)nc3cc2nc1Cl  growth inhibition            %               29
5           COc1ccc2c(Cc3ccc(O)cc3)cncc2c1O  growth inhibition            %                6

----------
Recorded growth inhibition by entry
ASSAY EXPLANATION: NCI Yeast Anticancer Drug Screen. Data for the mlh1 rad18 strain (AID 175)
CONDITION INFO: S. cerevisiae mlh1 rad18 strain growth inhibition; at 50.0 µM; active compounds read high
About 79,000 compounds went through this panel and 15% of them were active in at least one assay; those are over-represented in the sample as a whole. Active and inactive are the calls of the source. Rule as the data show it: active = growth inhibition above about 70%; inactive = the rest.
MEASURE: growth inhibition

> print(dat)
                                        smi   recorded.result
1     CCCn1c2ccccc2c2ccc3c(c21)C(=O)C=CC3=O  62.7% (inactive)
2       c1ccc(C(c2ccccc2)c2ccc3ccccc3n2)cc1  37.5% (inactive)
3              O/N=C(/CCc1ccccc1Cl)c1ccccc1    93.3% (active)
4  O=[N+]([O-])/C(Cl)=C(\Sc1ccccc1)C(Cl)=C(Cl)Cl    86.8% (active)
5                 Cc1cccc2c(=O)c3ccccc3oc12   3.5% (inactive)
6                NCCSC1(O)C(=O)c2ccccc2C1=O    75.2% (active)
7             O=C(Oc1ccccc1)c1ccc2ccccc2c1O   4.1% (inactive)
